- test.target: Adenosine receptor A3 (Homo sapiens, UniProt P0DMS8)
- Sequence (P0DMS8 whole entry): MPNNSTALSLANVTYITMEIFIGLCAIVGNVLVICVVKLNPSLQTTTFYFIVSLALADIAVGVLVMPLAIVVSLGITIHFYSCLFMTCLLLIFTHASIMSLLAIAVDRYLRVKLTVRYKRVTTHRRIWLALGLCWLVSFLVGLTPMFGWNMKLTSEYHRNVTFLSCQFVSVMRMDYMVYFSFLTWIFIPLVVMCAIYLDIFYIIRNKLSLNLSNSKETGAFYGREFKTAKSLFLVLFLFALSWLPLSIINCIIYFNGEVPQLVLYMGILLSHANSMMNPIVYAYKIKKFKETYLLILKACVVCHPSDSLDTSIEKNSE
- assay.info: Binding affinity to human adenosine A3 receptor
pKi: −log10 of the molar value.
reported.endpoint: pKi

| structure.smiles.string | reported.endpoint | observed.measurement |
| --- | --- | --- |
| Cn1c(=O)c2c(nc3n2CCCN3c2ccc(F)cc2)n(C)c1=O | pKi | 4.88 |

* * *

- test.target: Adenosine receptor A1 (Rattus norvegicus) (UniProt P25099)
- Sequence (whole entry): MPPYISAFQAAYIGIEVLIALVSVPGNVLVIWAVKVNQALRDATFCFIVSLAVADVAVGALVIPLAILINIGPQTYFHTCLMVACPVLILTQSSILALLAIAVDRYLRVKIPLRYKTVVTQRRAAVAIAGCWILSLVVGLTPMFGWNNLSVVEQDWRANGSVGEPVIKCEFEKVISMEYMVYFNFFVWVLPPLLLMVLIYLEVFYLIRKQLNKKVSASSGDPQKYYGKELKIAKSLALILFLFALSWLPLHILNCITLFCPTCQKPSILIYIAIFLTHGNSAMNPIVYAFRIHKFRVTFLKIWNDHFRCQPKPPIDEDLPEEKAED
- assay.info: Displacement of [3H]CCPA from adenosine A1 receptor in rat brain cortex relative to control
- Assay type: tissue-based
- Parameters: concentration or dose not given beside the values
- protocol.conditions: concentration not given here
inhibition values for the compounds below.

| structure.smiles.string | inhibition |
| --- | --- |
| C#CCn1c(=O)c2c(nc3n2CCCN3CCc2cc(OC)c(OC)c(OC)c2)n(C)c1=O | 18% |
| CCn1c(=O)c2c(nc3n2CCCN3CCc2ccc(OC)c(OC)c2)n(CC)c1=O | 35% |
| Cn1c(=O)c2c(nc3n2CCCN3CC(=O)N2CCN(Cc3ccc(Cl)cc3)CC2)n(C)c1=O | -1% |
| Cn1c(=O)c2c(nc3n2CCCN3Cc2ccc(Cl)cc2)n(C)c1=O | 27% |
| CCCn1c(=O)c2c(nc3n2CCCN3CCC(=O)N2CCN(Cc3ccc(Cl)cc3)CC2)n(CCC)c1=O | 8% |
| CCn1c(=O)c2c(nc3n2CCCN3CCc2cc(OC)c(OC)c(OC)c2)n(CC)c1=O | 14% |
| Cn1c(=O)c2c(nc3n2CCCN3CC(=O)N2CCN(Cc3ccc(C(F)(F)F)cc3)CC2)n(C)c1=O | 2% |
| CCCn1c(=O)c2c(nc3n2CCCN3CC(=O)N2CCN(Cc3ccccc3)CC2)n(CCC)c1=O | 17% |
| CCCn1c(=O)c2c(nc3n2CCCN3CC(=O)N2CCN(Cc3ccc(C(F)(F)F)cc3)CC2)n(CCC)c1=O | 23% |

FYI, the data here is from ChEMBL document CHEMBL3091303.
